target: VgEcR and RXR heterodimeric receptor (pVgRXR) with pIND/LacZ(SPI) in CHO cells (Drosophila melanogaster, UniProt P34021, E282G/G283S/G286V); construct: host or cells: CHO cells (ATCC CCL-61), transiently transfected or stably transformed with pVgRXR; test: β-Galactosidase gene activation in stably transformed CHO cells; assay type: cell-based; settings: ligand 10 μM, β-galactosidase
Decision: Induction Ratio (RLU in presence and absence of the ligand) >= 50 yields Satisfied, all other cases yield Not satisfied.

## Input Is Induction Ratio (RLU in presence and absence of the ligand) at least 50? Consider CCc1c(OC)cccc1C(=O)NN(C(=O)c1cc(Cl)cc(Cl)c1)C(C)(C)C [Ligand 13]
## Output Not satisfied

## Input Also CCc1c(OC)cccc1C(=O)NN(C(=O)c1cc(C)cc(C)c1)C(C)(C)C [Ligand 5] , if possible.
## Output Satisfied

## Input What do we get for CCc1c(OC)cccc1C(=O)NN(C(=O)c1cccc(OC)c1)C(C)(C)C [Ligand 1] ?
## Output Not satisfied

## Input Cool, now CC(C)(C)N(NC(=O)c1ccccc1)C(=O)c1ccccc1 [CE-2, 1,2-dibenzoyl-1-tert-butyl-hydrazine, reference compound]
## Output Not satisfied

## Input Then what about the molecule COc1cccc(C(=O)NN(C(=O)c2cc(C)cc(C)c2)C(C)(C)C)c1C [Ligand 3] ?
## Output Not satisfied

----------
Biological target: ecdysteroid receptor complex in Drosophila Kc cell cytosolic extract (Drosophila melanogaster, UniProt P34021)
Construct: The supernatant, containing the cytosolic protein extract; endogenous in cells; host or cells: Drosophila Kc167 cells, cytosolic extract
Sequence (P34021 1-878): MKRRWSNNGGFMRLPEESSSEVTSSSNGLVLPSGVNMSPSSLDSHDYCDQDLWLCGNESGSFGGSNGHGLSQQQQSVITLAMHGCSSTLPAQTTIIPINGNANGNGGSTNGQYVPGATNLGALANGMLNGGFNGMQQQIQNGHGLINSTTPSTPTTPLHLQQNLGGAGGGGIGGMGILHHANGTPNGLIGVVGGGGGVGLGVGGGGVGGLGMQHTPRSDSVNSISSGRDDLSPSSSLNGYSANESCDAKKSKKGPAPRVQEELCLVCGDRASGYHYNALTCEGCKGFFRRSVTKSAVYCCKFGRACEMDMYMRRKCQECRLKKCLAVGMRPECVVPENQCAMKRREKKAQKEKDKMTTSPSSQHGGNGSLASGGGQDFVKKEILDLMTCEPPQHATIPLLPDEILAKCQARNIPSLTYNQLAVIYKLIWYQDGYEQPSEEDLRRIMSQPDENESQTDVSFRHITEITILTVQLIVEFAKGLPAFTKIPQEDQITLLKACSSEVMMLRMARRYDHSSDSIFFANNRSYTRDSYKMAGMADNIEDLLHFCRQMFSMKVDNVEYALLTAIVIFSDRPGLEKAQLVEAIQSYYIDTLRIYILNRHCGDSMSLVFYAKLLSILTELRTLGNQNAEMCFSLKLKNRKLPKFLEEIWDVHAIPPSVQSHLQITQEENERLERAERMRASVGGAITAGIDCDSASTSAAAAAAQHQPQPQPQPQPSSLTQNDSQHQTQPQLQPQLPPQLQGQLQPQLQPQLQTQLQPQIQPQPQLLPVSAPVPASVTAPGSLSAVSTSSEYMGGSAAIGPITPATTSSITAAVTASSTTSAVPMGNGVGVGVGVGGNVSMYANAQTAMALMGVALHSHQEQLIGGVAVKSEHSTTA
Sequence (P20153 1-508 partner): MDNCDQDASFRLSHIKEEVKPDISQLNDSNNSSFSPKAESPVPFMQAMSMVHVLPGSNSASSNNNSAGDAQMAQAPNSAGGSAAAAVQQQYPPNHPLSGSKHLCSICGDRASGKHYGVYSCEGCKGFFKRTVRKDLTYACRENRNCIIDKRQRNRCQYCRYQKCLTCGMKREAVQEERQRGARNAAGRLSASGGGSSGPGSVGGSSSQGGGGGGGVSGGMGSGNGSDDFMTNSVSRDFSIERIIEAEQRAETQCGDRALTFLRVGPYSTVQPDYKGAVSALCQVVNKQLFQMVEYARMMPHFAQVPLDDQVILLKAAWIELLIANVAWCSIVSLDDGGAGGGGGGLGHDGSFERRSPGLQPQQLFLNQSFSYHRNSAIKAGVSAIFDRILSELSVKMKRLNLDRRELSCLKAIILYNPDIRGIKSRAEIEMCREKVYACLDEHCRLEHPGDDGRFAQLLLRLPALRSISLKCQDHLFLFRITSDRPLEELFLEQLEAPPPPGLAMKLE
Assay: Competitive 3H-ponasterone A binding assay, Kc cytosolic ecdysone receptor extract
Conditions: Kc cells/extract
reportedEndpoint: Kc log(1/EC50)
Respond numerically, and do not add a unit to the figure.

## Input Entry "CCc1c(OC)cccc1C(=O)NN(C(=O)c1cc(Cl)cc(Cl)c1)C(C)(C)C" has what Kc log(1/EC50)?
## Output 7.44

## Input Then this compound: "CCc1c(OC)cccc1C(=O)NN(C(=O)c1cc(F)cc(F)c1)C(C)(C)C"
## Output 7.41

## Input Please answer likewise for "CCc1c(OC)cccc1C(=O)NN(C(=O)c1cccc(OC)c1)C(C)(C)C"
## Output 7.36

## Input Next up: "COc1cccc(C(=O)NN(C(=O)c2cc(C)cc(C)c2)C(C)(C)C)c1C"
## Output 6.74

## Input Same question, CC(C)CC[C@@H](O)[C@](C)(O)[C@H]1CC[C@@]2(O)C3=CC(=O)[C@]4(O)C[C@@H](O)[C@@H](O)C[C@]4(C)[C@H]3[C@H](O)C[C@]12C [CE-3, muristerone A, reference compound] this time
## Output 7.96

## Input For "CCOc1cccc(C(=O)NN(C(=O)c2cc(C)cc(C)c2)C(C)(C)C)c1CC" then?
## Output 8.10

## Input Also "CCc1c(OC)cccc1C(=O)NN(C(=O)c1cc(C)cc(C)c1)C(C)(C)C" ?
## Output 7.70

## Input Same thing, different compound: "Cc1cc(C)cc(C(=O)N(NC(=O)c2ccc3c(c2C)OCCO3)C(C)(C)C)c1"
## Output 7.16
